Target: Lysophosphatidylserine lipase ABHD12 (Mus musculus, UniProt Q99LR1)
Sequence (Q99LR1 whole entry): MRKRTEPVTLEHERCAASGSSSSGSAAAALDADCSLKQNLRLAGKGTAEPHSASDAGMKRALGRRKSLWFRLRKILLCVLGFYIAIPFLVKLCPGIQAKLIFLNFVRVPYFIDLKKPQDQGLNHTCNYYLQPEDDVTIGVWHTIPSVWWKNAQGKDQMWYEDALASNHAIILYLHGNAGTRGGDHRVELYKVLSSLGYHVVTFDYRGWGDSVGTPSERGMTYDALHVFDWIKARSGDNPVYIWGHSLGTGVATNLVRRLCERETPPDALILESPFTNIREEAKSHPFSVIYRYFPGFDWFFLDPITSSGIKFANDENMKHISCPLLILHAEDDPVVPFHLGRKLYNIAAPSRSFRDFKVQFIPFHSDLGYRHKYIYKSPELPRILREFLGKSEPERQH
Experiment: Inhibition of JJH350 binding to ABHD12 in mouse brain membrane proteome incubated for 20 mins by CuAAC fluorescence dependent gel-based competitive ABPP assay
Type: cell membranes
measured metric: pIC50
Scale: negative log10 of molar concentration, which is what pIC50 denotes.

Q: Provide value of pIC50 for this record tested with Lysophosphatidylserine lipase ABHD12 (Mus musculus, UniProt Q99LR1): FC(F)(F)Oc1ccc(Oc2ccnc(N3CCC[C@@H](NC(=S)Nc4cccnc4)C3)c2Cl)c(Cl)c1
A: 4.00

Q: Provide value of pIC50 for this record tested with Lysophosphatidylserine lipase ABHD12 (Mus musculus, UniProt Q99LR1): FC(F)(F)Oc1cccc(Oc2ccnc(N3CCC(NC(=S)Nc4cccnc4)CC3)c2Cl)c1
A: 7.05

Q: Provide value of pIC50 for this record tested with Lysophosphatidylserine lipase ABHD12 (Mus musculus, UniProt Q99LR1): Cc1cnc(N2CCC(NC(=S)Nc3cccnc3)CC2)c(Cl)c1
A: 5.51

Q: Provide value of pIC50 for this record tested with Lysophosphatidylserine lipase ABHD12 (Mus musculus, UniProt Q99LR1): S=C(Nc1cccnc1)NC1CCN(c2cc(OCC3CC3)ccn2)CC1
A: 5.33

Q: Provide value of pIC50 for this record tested with Lysophosphatidylserine lipase ABHD12 (Mus musculus, UniProt Q99LR1): S=C(Nc1cccnc1)NC1CCN(c2cc(OCc3ccccc3)ccn2)CC1
A: 5.55

###

Target: Lysophosphatidylserine lipase ABHD12 (Mus musculus)
Sequence (whole entry): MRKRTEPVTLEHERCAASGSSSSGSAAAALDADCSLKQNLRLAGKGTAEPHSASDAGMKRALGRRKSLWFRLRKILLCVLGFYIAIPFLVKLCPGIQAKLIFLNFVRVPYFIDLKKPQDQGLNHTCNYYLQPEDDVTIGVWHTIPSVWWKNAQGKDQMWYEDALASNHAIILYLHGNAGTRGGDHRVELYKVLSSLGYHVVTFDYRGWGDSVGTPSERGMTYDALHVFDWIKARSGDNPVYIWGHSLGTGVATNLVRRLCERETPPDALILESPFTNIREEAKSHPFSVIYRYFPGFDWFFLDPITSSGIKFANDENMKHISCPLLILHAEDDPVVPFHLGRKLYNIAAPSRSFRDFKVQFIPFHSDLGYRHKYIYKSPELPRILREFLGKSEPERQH
Assay: Inhibition of JJH350 binding to ABHD12 in mouse brain membrane proteome at 2 uM after 20 mins by CuAAC based fluorescence scanning assay relative to control
Assay type: cell membranes
I'd be grateful if you could share measured inhibition for these entries.
Reply with just the number (in %).

Q: Quick check: inhibition of FC(F)(F)c1cnc(N2CCC(NC(=S)Nc3cccnc3)C2)c(Cl)c1 (stereo not given) ?
A: 1

Q: Quick check: inhibition of FC(F)(F)c1cnc(N2CCC(NC(=S)Nc3ccccc3)CC2)c(Cl)c1 ?
A: 66

Q: Quick check: inhibition of FC(F)(F)c1cnc(N2C3CCC2CC(NC(=S)Nc2cccnc2)C3)c(Cl)c1 (stereo not given) ?
A: 19

Q: Quick check: inhibition of FC(F)(F)c1cnc(NCCCCNC(=S)Nc2cccnc2)c(Cl)c1 ?
A: 12

Q: Quick check: inhibition of O=C(Nc1cccnc1)NC1CCN(c2ncc(C(F)(F)F)cc2Cl)CC1 ?
A: 1

###

Assay: Drug level in mouse brain at 30 mg/kg, po
Assay type: ADME, organism-based
Conditions: in vivo, read-out: Drug uptake
measured metric: concentration

Q: Quick check: concentration of FC(F)(F)Oc1ccc(Oc2ccnc(N3CCC(NC(=S)Nc4cccnc4)CC3)c2Cl)c(Cl)c1 ?
A: 3 to 9 µM

###

Assay: Drug level in mouse peripheral regions at 30 mg/kg, ip
Type: ADME, organism-based
Settings: in vivo, read-out: Drug uptake
measured metric: concentration

Q: Quick check: concentration of FC(F)(F)Oc1ccc(Oc2ccnc(N3CCC(NC(=S)Nc4cccnc4)CC3)c2Cl)c(Cl)c1 ?
A: 3 to 9 µM

###

Target: Lysophosphatidylserine lipase ABHD12 (Mus musculus) (UniProt Q99LR1)
Sequence (whole entry): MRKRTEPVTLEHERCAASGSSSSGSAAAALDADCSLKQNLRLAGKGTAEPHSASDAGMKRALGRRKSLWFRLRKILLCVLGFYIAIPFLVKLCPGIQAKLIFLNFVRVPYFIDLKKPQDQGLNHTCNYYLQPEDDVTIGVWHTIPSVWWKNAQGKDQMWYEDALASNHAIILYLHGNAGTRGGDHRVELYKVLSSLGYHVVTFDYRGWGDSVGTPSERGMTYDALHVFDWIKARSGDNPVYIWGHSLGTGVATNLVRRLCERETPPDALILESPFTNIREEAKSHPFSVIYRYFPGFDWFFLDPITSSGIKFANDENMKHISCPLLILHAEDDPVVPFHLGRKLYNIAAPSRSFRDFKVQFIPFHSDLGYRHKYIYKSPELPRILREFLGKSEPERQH
Test: Inhibition of JJH350 binding to ABHD12 in mouse brain membrane proteome at 10 uM after 20 mins by CuAAC based fluorescence scanning assay relative to control
Assay type: cell membranes
measured metric: inhibition (%)
Reply with just the number (in %).

Q: Provide value of inhibition for this record tested with Lysophosphatidylserine lipase ABHD12 (Mus musculus) (UniProt Q99LR1): FC(F)(F)c1cnc(N2CCC(NC(=S)Nc3cnc4ccccc4c3)CC2)c(Cl)c1
A: 2

Q: Provide value of inhibition for this record tested with Lysophosphatidylserine lipase ABHD12 (Mus musculus) (UniProt Q99LR1): FC(F)(F)c1cnc(N2CCC(NC(=S)N3CCCc4ccccc43)CC2)c(Cl)c1
A: 0

Q: Provide value of inhibition for this record tested with Lysophosphatidylserine lipase ABHD12 (Mus musculus) (UniProt Q99LR1): FC(F)(F)c1cnc(NCCCCNC(=S)Nc2cccnc2)c(Cl)c1
A: 35

Q: Provide value of inhibition for this record tested with Lysophosphatidylserine lipase ABHD12 (Mus musculus) (UniProt Q99LR1): FC(F)(F)c1cnc(N2CCCC(NC(=S)Nc3cccnc3)C2)c(Cl)c1 (stereo not given)
A: 4

Q: Provide value of inhibition for this record tested with Lysophosphatidylserine lipase ABHD12 (Mus musculus) (UniProt Q99LR1): CN(C(=S)Nc1cccnc1)C1CCN(c2ncc(C(F)(F)F)cc2Cl)CC1
A: 61

###

I'd be grateful if you could share measured pIC50 for these entries.
Target: Lysophosphatidylserine lipase ABHD12 (Mus musculus, UniProt Q99LR1)
Assay: Inhibition of JJH350 binding to ABHD12 in mouse brain membrane proteome incubated for 20 mins by CuAAC fluorescence dependent gel-based competitive ABPP assay
Format: cell membranes
Scale: negative log10 of molar concentration, which is what pIC50 denotes.

Q: Quick check: pIC50 of Cc1c(Oc2ccc(OC(F)(F)F)cc2)ccnc1N1CCC(NC(=S)Nc2cccnc2)CC1 ?
A: 7.59

Q: Quick check: pIC50 of FC(F)(F)Oc1ccc(Oc2ccnc(N3CCC(NC(=S)Nc4cccnc4)CC3)c2Cl)cc1Cl ?
A: 7.48

Q: Quick check: pIC50 of FC(F)(F)c1cccc(N2CCC(NC(=S)Nc3cccnc3)CC2)n1 ?
A: 6.20

Q: Quick check: pIC50 of S=C(Nc1cccnc1)NC1CCN(c2cc(Cl)ccn2)CC1 ?
A: 5.68

Q: Quick check: pIC50 of FC(F)(F)Oc1ccc(Oc2ccnc(N3CCCC(NC(=S)Nc4cccnc4)C3)c2Cl)c(Cl)c1 (stereo not given) ?
A: 4.05

Q: Quick check: pIC50 of FC(F)(F)Oc1ccc(Oc2ccnc(N3CCC(NC(=S)Nc4cccnc4)CC3)c2)cc1 ?
A: 6.39

Q: Quick check: pIC50 of FC(F)(F)c1ccnc(N2CCC(NC(=S)Nc3cccnc3)CC2)c1 ?
A: 6.19

Q: Quick check: pIC50 of FC(F)(F)c1ccnc(N2CCC(NC(=S)Nc3cccnc3)CC2)c1Cl ?
A: 6.52

###

I'd be grateful if you could share measured IC50 for these entries.
Target: Lysophosphatidylserine lipase ABHD12 (Mus musculus, UniProt Q99LR1)
Assay: Inhibition of FP-Rh probe binding to ABHD12 in mouse brain membrane proteome incubated for 45 mins by CuAAC fluorescence dependent gel-based competitive ABPP assay
Format: cell membranes
Reply with just the number (in nM).

Q: Quick check: IC50 of COc1ccc(N2CCN(C(=O)ON3C(=O)C4CN(C(=O)c5ccc(Oc6ccccc6)cc5)CCN4C3=O)CC2)cc1 (stereo not drawn) ?
A: 320

Q: Quick check: IC50 of C#CCOc1ccc(N2CCN(C(=O)ON3C(=O)C4CN(C(=O)c5ccc(Oc6ccccc6)cc5)CCN4C3=O)CC2)cc1 (stereo not drawn) ?
A: 400
